The entries that follow carry Ki values tested on Carbonic anhydrase 9 (Homo sapiens), drawn from several published reports.

Molecule	Experimental target	Ki
Cc1ccc(S(=O)(=O)CC(=O)Nc2ccc([N+](=O)[O-])cc2)cc1	Carbonic anhydrase 9 (Homo sapiens)	> 100 µM
CC(=O)OC[C@H]1OC(NS(=O)(=O)c2ccc(O)cc2)C=C[C@@H]1OC(C)=O (relative stereo)	Carbonic anhydrase 9 (Homo sapiens)	> 50 µM

Next up:
Please tell me: Ki of CS(=O)(=O)N1C[C@@H](NS(=O)(=O)c2ccc(-c3ccccc3)cc2)C[C@@H]1C(=O)NO , system Carbonic anhydrase 9 (Homo sapiens)?
> 100 µM

---

The entries that follow carry pKi values tested on Carbonic anhydrase 9 (Homo sapiens, UniProt Q16790), drawn from several published reports.
Reminder that pKi means the negative base-10 logarithm of the concentration expressed in mol/L.

Worked examples follow.
Compound	pKi
NS(=O)(=O)c1cnccc1-[n+]1ccccc1	8.12
NS(=O)(=O)c1ccc(-c2ccccc2)cc1	9.68
Cc1ccc(CN2C(=O)C(=O)c3cc(S(N)(=O)=O)ccc32)cc1C	6.56
Cc1ccc(CN2C(=O)/C(=N\c3ccc(NC(=O)Nc4ccc(S(N)(=O)=O)cc4)cc3)c3cc(Br)ccc32)cc1	7.58
NS(=O)(=O)c1ccc(NC(=O)Nc2nc(Nc3ccc(S(N)(=O)=O)cc3)nc(N3CCCCC3)n2)cc1	7.55

Please tell me: pKi of COc1ccc2c(c1)/C(=C1/S/C(=N/c3ccc(S(N)(=O)=O)cc3)NC1=O)C(=O)N2 , system Carbonic anhydrase 9 (Homo sapiens, UniProt Q16790)?
7.64

Please tell me: pKi of NS(=O)(=O)c1ccc(C(=O)N/N=C/c2ccc(N3CCOCC3)cc2)cc1 , system Carbonic anhydrase 9 (Homo sapiens, UniProt Q16790)?
8.07

Please tell me: pKi of CCCCCCCCCCCCCCOS(N)(=O)=O , system Carbonic anhydrase 9 (Homo sapiens, UniProt Q16790)?
7.82

---

pKi: −log10 of the molar value.
The entries that follow carry pKi values tested on Carbonic anhydrase 9 (Homo sapiens), drawn from several published reports.
Kind request: treat 7 as inclusive, so pKi at 7 or higher is 1, anything lower is -1.

Example results:
Compound	Assigned label
CCN(CC)C(=O)Nc1cccc(S(N)(=O)=O)c1	-1
NS(=O)(=O)c1ccc(-c2noc(-c3cccs3)n2)cc1	1
NS(=O)(=O)c1cccc(NC(=O)CN(CCN(CC(=O)O)CC(=O)Nc2cccc(S(N)(=O)=O)c2)CC(=O)O)c1	1
CC(=O)OC[C@H]1O[C@@H](S(N)(=O)=O)[C@H](OC(C)=O)[C@@H](OC(C)=O)[C@H]1OC(C)=O	-1
N#Cc1nonc1COc1ccc(S(N)(=O)=O)cc1	1
COc1ccc(-c2nn(-c3ccc(S(N)(=O)=O)cc3)cc2/C=N\Nc2nc(-c3cc4cc(Cl)ccc4oc3=O)cs2)cc1	1

Does pKi meet or surpass 7 for CCOc1ccc(S(=O)(=O)NCCO)cc1-c1nnc2c(n1)c(C)nn2-c1ccc(C)cc1 ?
1

Does pKi meet or surpass 7 for COc1ccc(S(=O)(=O)N(OC(C)C)C(C(=O)NO)C(C)C)cc1 (stereo not drawn) ?
-1

Does pKi meet or surpass 7 for NS(=O)(=O)c1ccc(NC(=O)CCCNc2ccn(O)c(=O)n2)cc1 ?
1

Does pKi meet or surpass 7 for COC(=O)C(CC(C)C)NC(=O)Nc1cccc(S(N)(=O)=O)c1 (stereo not drawn) ?
-1

Does pKi meet or surpass 7 for Cc1ccc(-c2cc(C(F)(F)F)nn2-c2ccc(S(N)(=O)=O)cc2)cc1 ?
1
